The origin of these recorded values is ChEMBL document CHEMBL1909600.

- Test system: HeLa
- assay-procedure: Cytotoxicity against human HeLa cells after 24 hrs by MTT assay
- Type: functional, cell-based
assay-endpoint: IC50 (nM)

{"molecule": "CC(=O)c1ccc(OC2Cc3c(ccc(C(C)=O)c3O)O2)cc1O (stereo unspecified)", "observed-value": 490}
